- Test system: NCI-H522 lung
- EXPERIMENT_DESCRIPTION: NCI-60 one-dose screen, 48 h
- ASSAY_CONDITIONS: 10 µM unless noted
Compounds without any hit were thinned out: in the full panel of roughly 83,000, 20% have a hit. Active and inactive are the calls of the source. Rule for the calls: active = growth percent below 10; inactive = the rest.
Labels: t for active, f for inactive

| COMPOUND | LABEL_VALUE |
| --- | --- |
| CCCCN(CCCC)CCCCCCCCCCO | f |
| O=C1C=CC(=O)N1c1ccc(O)cc1 | f |
| CSc1nc(C)c(C(=O)CCN2CCN(c3ccccn3)CC2)s1 | t |
| Nc1nc(-c2ccccc2)nc(N)c1N=O | t |
| COC(=O)c1cc([N+](=O)[O-])cc([N+](=O)[O-])c1Cl | t |
| Cc1ccc(Nc2ccc(O)c3c2C(=O)c2c(O)ccc(Nc4ccc(C)cc4)c2C3=O)cc1 | f |
| COC(=O)c1nc(=S)[nH]c(C(=O)OC)c1C(=O)c1ccc(Cl)c(Cl)c1 | f |
| O=C(NOC(=O)c1ccccc1)c1ccccc1 | f |
| CCOc1ccc(C(C[N+](=O)[O-])Sc2ccccc2N)cc1 (configuration not stated) | f |
| CC[n+]1ccc(Nc2ccc(NC(=O)c3ccc(Nc4cc[n+](CC)c5ccc([N+](=O)[O-])cc45)cc3)cc2)cc1 | f |
| Cc1ccc(/C=C2\CNC/C(=C\c3ccc(C)cc3)C2=O)cc1 | t |
| O=C(CCl)N(c1ccccc1)c1ccccc1 | t |
| Nc1ccc(-c2ccc(N)c(S(=O)(=O)O)c2)cc1S(=O)(=O)O | f |
| CN(C)CC(C)(CN(C)C)C(=O)/C=C/c1c(Cl)cccc1Cl | t |
| Cc1cc(C(N)=O)cc(C)c1C(=O)OCCCl | f |
| O=C1Nc2ccc(Br)cc2C1=O | f |
| C/C(=N/NC(N)=S)c1ccc(C)cc1 | f |

----------
- Tested on: DU-145 prostate
- EXPERIMENT_DESCRIPTION: NCI-60 one-dose screen, 48 h (100 = growth as untreated, 0 = no growth, -100 = all killed)
- ASSAY_CONDITIONS: 10 µM unless noted
About 83,000 compounds went through this panel and 20% of them were active in at least one assay; those are over-represented in the sample as a whole.
Lab note: compare growth with 90%, writing YES if less and NO if equal or more.

| COMPOUND | LABEL_VALUE |
| --- | --- |
| CCOc1ccc2c(c1)/C(=C\C=C\C1CC(C)C3CC(OCC)CCC3N1CC)CC(C)N2CC (stereo not given) | YES |
| O=C1C=CC(O)=CC1=P(c1ccccc1)(c1ccccc1)c1ccccc1 | NO |
| C1=C(c2ccccc2)c2ccccc2C1 | NO |
| O=Nc1ccc2ccccc2c1O | NO |
| O=[N+]([O-])c1ccc2c(c1)Cc1ccccc1-2 | NO |
| COc1cc(/C=C2\SC(=S)N(/C=C/c3nc4ccccc4[nH]c3=O)C2=O)cc(OC)c1OC | NO |
| CCCCCCCCCCCC[N+]1(CCCCCCCCCCCC)CCCC(C)C1 (stereo not given) | YES |
| O=C1C=CC(=O)N1c1ccc(O)cc1 | NO |
| COc1cc(-c2ccc(-[n+]3nc(-c4ccc([N+](=O)[O-])cc4)nn3-c3ccc([N+](=O)[O-])cc3)c(OC)c2)ccc1-[n+]1nc(-c2ccc([N+](=O)[O-])cc2)nn1-c1ccc([N+](=O)[O-])cc1 | YES |
